Parameter TGI: see the listing below.
Tested on: CCRF-CEM leukemia
Assay: NCI tumour cell line growth inhibition, 48 h

[
  {
    "compound": "COC(=O)C1CC2c3c(c4ccccc4n3C)CC(C1=O)N2C (stereo not given)",
    "value.qualifier": ">",
    "TGI, µM": 100
  },
  {
    "compound": "CC(=O)N(C(C)=O)c1c(N)n(C)c(=O)[nH]c1=O",
    "value.qualifier": ">",
    "TGI, µM": 100
  },
  {
    "compound": "CC1=NOC(C)(O)/C1=N/O (stereo not given)",
    "value.qualifier": ">",
    "TGI, µM": 100
  },
  {
    "compound": "CCOC(=O)c1cnc2c(C)cc(C)cc2c1NCCCN(C)C",
    "value.qualifier": "=",
    "TGI, µM": 62.7
  },
  {
    "compound": "CCOc1cc2ncc(C#N)c(Nc3ccc(F)c(Cl)c3)c2cc1NC(=O)CC1CCSS1 (stereo not given)",
    "value.qualifier": "=",
    "TGI, µM": 2.06
  },
  {
    "compound": "COc1ccc2nc3n[nH]c(N)c3nc2c1",
    "value.qualifier": ">",
    "TGI, µM": 25.7
  },
  {
    "compound": "COc1cccc(C2CC(=O)c3cc(N4CCCC4)ccc3N2)c1 (stereo not given)",
    "value.qualifier": ">",
    "TGI, µM": 100
  },
  {
    "compound": "CC[C@H](C)[C@H](NC(=O)C12CC(NC)(C1)C2)C(=O)N(C)[C@H](C[C@@H](OC(C)=O)c1nc(C(=O)N[C@@H](Cc2ccccc2)C[C@H](C)C(=O)OC)cs1)C(C)C",
    "value.qualifier": "=",
    "TGI, µM": 2.41
  },
  {
    "compound": "c1ccc(-c2n(Cc3ccc4ccccc4n3)cc[n+]2Cc2ccc3ccccc3n2)cc1",
    "value.qualifier": "=",
    "TGI, µM": 14.7
  },
  {
    "compound": "C=C[C@]1(C)CC(O)C2C(=C)C(=O)OC2[C@H]1C(=C)C=O (stereo not given in full)",
    "value.qualifier": "=",
    "TGI, µM": 4.4
  }
]

###

Test system: SF-295 CNS
Assay: NCI tumour cell line growth inhibition, 48 h
Parameter TGI: see the listing below.
readout.label: TGI

[
  {
    "compound": "Cc1ccc(C2CC(c3cccc(Nc4ccncc4)c3)=NN2c2cc(Cl)cc(Cl)c2)cc1 (configuration not stated)",
    "measured.on": "SF-295 CNS",
    "readout.value": "3.1 µM"
  },
  {
    "compound": "O=C1/C(=C\\c2cccc(Oc3ccccc3)c2)S(=O)(=O)C(c2ccccc2)N1c1cc(Cl)ccc1Cl (configuration not stated)",
    "measured.on": "SF-295 CNS",
    "readout.value": "33.1 µM"
  },
  {
    "compound": "Cc1cc2nc(CS)[nH]c2cc1C",
    "measured.on": "SF-295 CNS",
    "readout.value": "25 µM"
  },
  {
    "compound": "COc1ccc2cnc(N)c(C#Cc3cc(C(=O)Nc4ccc(CN5CCN(C)CC5)c(C(F)(F)F)c4)cnc3C)c2c1",
    "measured.on": "SF-295 CNS",
    "readout.value": "> 33.7 µM"
  },
  {
    "compound": "COc1cc(/C=N/NC(=O)c2c(Cl)c(Cl)c(Cl)c(Cl)c2-c2nc3ccccc3[nH]2)ccc1O",
    "measured.on": "SF-295 CNS",
    "readout.value": "> 100 µM"
  },
  {
    "compound": "C/C(=N/NC(=O)c1ccccc1O)c1ccc(/C(C)=N\\NC(=O)c2ccccc2O)c2nc3cc(C)c(C)cc3nc12",
    "measured.on": "SF-295 CNS",
    "readout.value": "> 100 µM"
  },
  {
    "compound": "Cc1ccc(SC2=C(N(C)C)C(=O)c3ccccc3C2=O)cc1",
    "measured.on": "SF-295 CNS",
    "readout.value": "25.6 µM"
  },
  {
    "compound": "Cc1cccc(C)c1NC(=O)/C=C/c1ccccc1",
    "measured.on": "SF-295 CNS",
    "readout.value": "> 100 µM"
  },
  {
    "compound": "COC(=O)c1oc2c(C(C)=O)c(OCCN3CCOCC3)c(OC)cc2c1C",
    "measured.on": "SF-295 CNS",
    "readout.value": "> 100 µM"
  },
  {
    "compound": "CN(C)C(=S)NC(=S)Nc1ccc2ccccc2c1",
    "measured.on": "SF-295 CNS",
    "readout.value": "18.8 µM"
  },
  {
    "compound": "COc1cccc(CNCCN2C(=O)c3ccc4c5c(ccc(c35)C2=O)C(=O)N(CCNCc2cccc(OC)c2)C4=O)c1",
    "measured.on": "SF-295 CNS",
    "readout.value": "3.88 µM"
  },
  {
    "compound": "O=C1c2ccccc2C(=O)c2[nH]c(Cc3ccccc3F)nc21",
    "measured.on": "SF-295 CNS",
    "readout.value": "> 100 µM"
  },
  {
    "compound": "COc1ccc(OC)c(N(CCN2C(=O)c3ccccc3C2=O)C(=O)CCl)c1",
    "measured.on": "SF-295 CNS",
    "readout.value": "2.44 µM"
  },
  {
    "compound": "Nc1c(N2CCCCC2)c(=O)nc2[nH]/c(=C\\c3ccco3)c(=O)n12",
    "measured.on": "SF-295 CNS",
    "readout.value": "> 100 µM"
  },
  {
    "compound": "CC(=O)OCC1OC(n2c(C)c(C(C)=O)c(-c3ccc(Cl)cc3)c(C#N)c2=S)C(OC(C)=O)C(OC(C)=O)C1OC(C)=O (configuration not stated)",
    "measured.on": "SF-295 CNS",
    "readout.value": "> 100 µM"
  },
  {
    "compound": "Cc1ccc(Oc2ccc(C(=O)c3cccc(C(=O)c4ccc(Oc5ccc(C)cc5)cc4)n3)cc2)cc1",
    "measured.on": "SF-295 CNS",
    "readout.value": "> 100 µM"
  },
  {
    "compound": "C=C1CC[C@@H]2C(C)(C)[C@H](O)CC[C@@]2(C)[C@@H]1COc1ccc2ccc(=O)oc2c1",
    "measured.on": "SF-295 CNS",
    "readout.value": "62.4 µM"
  },
  {
    "compound": "c1ccc(-c2ccc(-c3ccc(C4=NCCN4)cc3)o2)cc1",
    "measured.on": "SF-295 CNS",
    "readout.value": "3.82 µM"
  },
  {
    "compound": "S=C(NCCc1ccccn1)c1nc[nH]c1C(=S)NCCc1ccccn1",
    "measured.on": "SF-295 CNS",
    "readout.value": "> 100 µM"
  },
  {
    "compound": "N#Cc1cc2c(cc1Cl)SC(=Nc1ccccc1)N(S(=O)(=O)c1ccc(Cl)cc1)S2(=O)=O",
    "measured.on": "SF-295 CNS",
    "readout.value": "72.7 µM"
  },
  {
    "compound": "COc1cccc(C2CC(=O)c3cc(N4CCCC4)ccc3N2)c1 (configuration not stated)",
    "measured.on": "SF-295 CNS",
    "readout.value": "> 100 µM"
  },
  {
    "compound": "c1ccc2[nH]c(C3CCCCO3)nc2c1 (configuration not stated)",
    "measured.on": "SF-295 CNS",
    "readout.value": "> 100 µM"
  },
  {
    "compound": "CCOc1ccc(/C=C\\c2cc(OC)c(OC)c(OC)c2)cc1",
    "measured.on": "SF-295 CNS",
    "readout.value": "0.000209 µM"
  },
  {
    "compound": "Cn1cc(NC(=O)c2cc(NC(=O)CCCCCCCCC(=O)Nc3cc(C(=O)Nc4cc(C(=O)NCCC(N)N)n(C)c4)n(C)c3)cn2C)cc1C(=O)NCCC(=N)N",
    "measured.on": "SF-295 CNS",
    "readout.value": "74.8 µM"
  },
  {
    "compound": "COC(=O)C1CC2c3c(c4ccccc4n3C)CC(C1=O)N2C (configuration not stated)",
    "measured.on": "SF-295 CNS",
    "readout.value": "> 100 µM"
  },
  {
    "compound": "Cc1[nH]n(-c2ncc(C#N)c(=O)[nH]2)c(=O)c1CCO",
    "measured.on": "SF-295 CNS",
    "readout.value": "> 100 µM"
  },
  {
    "compound": "C#CCC(O)c1ccccc1C(O)CC#C (configuration not stated)",
    "measured.on": "SF-295 CNS",
    "readout.value": "> 100 µM"
  },
  {
    "compound": "CCOC(=O)C(=CNC(=S)c1ccncc1)C(=O)OCC",
    "measured.on": "SF-295 CNS",
    "readout.value": "> 100 µM"
  },
  {
    "compound": "Cc1cc(Cc2c(C)c(C)c(Cc3cc(C)cc(C(C)(C)C)c3O)c(C)c2C)c(O)c(C(C)(C)C)c1",
    "measured.on": "SF-295 CNS",
    "readout.value": "> 100 µM"
  },
  {
    "compound": "Cn1ccnc1CCc1ccc(Cl)cc1Cl",
    "measured.on": "SF-295 CNS",
    "readout.value": "> 100 µM"
  },
  {
    "compound": "Nc1ncnc2c1ncn2C1OC(CSC(F)F)C(O)C1O (configuration not stated)",
    "measured.on": "SF-295 CNS",
    "readout.value": "> 100 µM"
  },
  {
    "compound": "COc1ccc2nc3n[nH]c(N)c3nc2c1",
    "measured.on": "SF-295 CNS",
    "readout.value": "> 76.7 µM"
  },
  {
    "compound": "CC(=O)NC(CCCN(Cc1ccccc1)C(=O)NCCCl)C(=O)NCc1ccccc1 (configuration not stated)",
    "measured.on": "SF-295 CNS",
    "readout.value": "> 100 µM"
  },
  {
    "compound": "CCOP(=O)(OCC)/C(=C\\n1c(=S)[nH]c2cc(C)ccc21)C(=O)OC",
    "measured.on": "SF-295 CNS",
    "readout.value": "> 100 µM"
  },
  {
    "compound": "CN(c1nc(=[N+](C)C)ss1)C1CCCCC1",
    "measured.on": "SF-295 CNS",
    "readout.value": "> 100 µM"
  },
  {
    "compound": "COc1ccc2c(c1)CCc1cc(C(N)=O)c3nnnn3c1-2",
    "measured.on": "SF-295 CNS",
    "readout.value": "98.5 µM"
  },
  {
    "compound": "COc1ccccc1NC(=O)c1ccc(NC2=C(Cl)C(=O)N(Cc3ccccc3)C2=O)cc1",
    "measured.on": "SF-295 CNS",
    "readout.value": "63.4 µM"
  },
  {
    "compound": "O=C1CNN=C(CSc2nc3ccc(I)cc3c(=O)n2Cc2ccccc2)N1",
    "measured.on": "SF-295 CNS",
    "readout.value": "59.7 µM"
  },
  {
    "compound": "CCOC(=O)C(C(C)=O)C1CC=CC1 (configuration not stated)",
    "measured.on": "SF-295 CNS",
    "readout.value": "> 100 µM"
  },
  {
    "compound": "C[C@@H]1OC(=O)C[C@H]2CC(=O)N(CCC3CN(C(=O)c4ccccc4)c4ccccc43)C[C@@H]21 (some centres not stated)",
    "measured.on": "SF-295 CNS",
    "readout.value": "> 100 µM"
  },
  {
    "compound": "CN(C)CCNC(=O)c1cccc2c(NC(CCCN=C(N)N)C(=O)O)c3ccccc3[n+](C)c12 (configuration not stated)",
    "measured.on": "SF-295 CNS",
    "readout.value": "> 100 µM"
  },
  {
    "compound": "COc1ccccc1C=NC12CC3CC(CC(C3)C1)C2",
    "measured.on": "SF-295 CNS",
    "readout.value": "> 100 µM"
  }
]

Reference source: PubChem BioAssay (NCI)
